Reference for the values: patent EP1803452A1

assay: Stability test in buffer (pH 7.4); format: physicochemical; conditions: phosphate buffer/acetonitrile 7:3; 60 minutes at 37°C, 100 mM potassium phosphate buffer (pH 7.4) and acetonitrile 7:3 (v/v), LC/MS; read-out: Buf. remaining rate (%/60min)
Provide the recorded remaining at 1 h for the entries that follow.
Numbers only here, please. The scale is %.

Give its remaining at 1 h value. Item: `COC(=O)c1ccc(OC(=O)CCCc2ccc(NC(=O)c3ccccc3-c3ccc(C(F)(F)F)cc3)c(C(=O)N(C)C)c2)c(F)c1`
98

Find the recorded remaining at 1 h belonging to `CCc1cc(C(=O)OC)cc(Cl)c1OC(=O)CCCc1ccc(NC(=O)c2ccc(C)nc2-c2ccc(C(F)(F)F)cc2)c(C(=O)N(C)C)c1` and report it.
101

So what's the measured remaining at 1 h for this one? CN(C)C(=O)c1cc(CCCC(=O)Oc2ccc(C(=O)OC3CCc4ccccc43)cc2)ccc1NC(=O)c1ccccc1-c1ccc(C(F)(F)F)cc1 (stereo not drawn)
99

Using the record for `COC(=O)c1ccc(-c2nc(C)ccc2C(=O)Nc2ccc(CCCC(=O)Oc3c(Cl)cc(C(=O)OC)cc3OC)cc2C(=O)N(C)C)cc1` , report its remaining at 1 h.
97

Which remaining at 1 h value belongs to `CC(C)OC(=O)COC(=O)c1ccc(OC(=O)CCCc2ccc(NC(=O)c3ccccc3-c3ccc(C(F)(F)F)cc3)c(C(=O)N(C)C)c2)cc1` ?
101

Entry `COC(=O)c1ccc(OC(=O)C2CCN(c3ccc(NC(=O)c4ccccc4-c4ccc(C(F)(F)F)cc4)c(C(=O)N(C)C)c3)CC2)cc1` has what remaining at 1 h?
102
